Listing of entries alongside the reported normalized growth.
- protocol_summary: chemical genetic growth profiling, strain panel (AID 1159580);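 further: tested at 20 µM; growth read once vehicle control cultures reached saturation at 30 °C; 1 = growth at the plate median or of vehicle wells; lower values mean less growth of the strain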
- experimental_context: S. cerevisiae deletion strains, growth OD, strain NNK1, stronger effect = lower value
Out of some 5,500 compounds screened, about 2,000 (36%) were called active. Not shown: some 18% with an inconclusive outcome. This is one part of the list.

molecule | normalized growth
Cc1nc(-c2ccccn2)nc(SCc2ccccc2)c1Cl | 0.945
O=C(NCCc1ccncc1)c1ccc(Cl)c(Cl)c1 | 0.982
OC1CCN(c2cc(C(F)(F)F)nc3cc(Cl)cc(Cl)c23)CC1 | 1
O=S(=O)(c1ccc(Cl)cc1)N(Cc1cccnc1)Cc1ccc(Cl)cc1Cl | 0.948
Fc1cccc(Cl)c1CSc1n[nH]c(-c2cc(C(F)(F)F)cc(C(F)(F)F)c2)n1 | 0.96
Cc1nc(-c2ccccn2)[nH]c(=O)c1Cc1c(Cl)cccc1Cl | 0.96
C=CCc1c(CCC)nc(-c2ccccn2)[nH]c1=O | 0.945
COC(=O)c1cnn(-c2c(Cl)cccc2Cl)c1C=C(C#N)C#N | 0.969
Cc1csc(NC(=O)Nc2ccc(C(F)(F)F)cc2)c1 | 0.971
CC(C)Cc1ccc(C(C)C(=O)Nc2nn(C)c3ccccc23)cc1 (stereo not drawn) | 0.98
O=C(N/N=C\c1cc(Br)ccc1O)c1ccccc1Oc1ccccc1 | 0.959
O=C(NCC1COc2ccccc2O1)c1ccc(Cl)cc1 (stereo not drawn) | 0.958
O=S(=O)(NC(=S)Nc1ccc(Cl)c(Cl)c1)c1ccccc1 | 1
